measured on: T1, human HER3/ErbB3 extracellular domain (human, UniProt P21860 20-643)
T1 construct: extracellular domain; the range 1-643 of M34309 is printed only for the immunogen; also called Human HER3 ECD; recombinant human HER3
experiment summary: ELISA on human HER3 ECD
assay readout: EC50 (ng/mL)
Lab book: enter the figure in ng/mL, no units written.

Reference set, count: 2
binder	recorded measurement
HER3-hMab-A14 (antibody, V domains shown) VH: QVQLVESGGGLVQPGGSLRLSCSASGFSFSSSYWICWVRQAPGKGLELIGYIWSGNGATYYASWAKGRFTISRDTSKNTVYLQMNSLRAEDTAVYFCARNYDASGYGIFHLWGPGTLVTVSS VL: DIQMTQTPSSLSASVGDRVTINCQASQSIVSSYLSWYQQKPGKPPKLLIYSASKLASGVPSRFSGSGSGTDFTLTISSLQPEDFATYYCLYGVDSSNIDNAFGGGTKVEIK	1.9
HER3-hMab-A12 (antibody, V domains shown) VH: QVQLVESGGGLVQPGGSLRLSCSASGFSFSASYYIYWVRQAPGKGLEYIAYITGDDDKRTYYANWAKGRFTISRDTSKNTVYLQMNSLRAEDTAVYYCTRNLPDELWGPGTLVTVSS VL: QAQMTQTPSTLSASVGDRVTITCQSSESVYSYKNLAWYQQKPGKPPKLLIWQASRLSSGVPSRFSGSGSGTEFTLTISSLQPDDFATYYCQGTYYSSAWDFVFGGGTKVEIK	2.4

Proceeding to the next binder to report its EC50.
Record request: EC50 value, item HER3-hMab-A16 (antibody, V domains shown) VH: QVQLVESGGGLVQPGGSLRLSCSASGFSFSSSYWICWVRQAPGKGLELIGYIWSGNGATYYASWAKGRFTISRDTSKNTVYLQMNSLRAEDTAVYFCARNYDASGYGIFHLWGPGTLVTVSS VL: AVQMTQTPSSLSASVGDRVTINCQASQSIVSSYLSWYQQKPGKPPKLLIYSASKLASGVPSRFSGSGSGTDFTLTISSLQPEDFATYYCLYGVDSSNIDNAFGGGTKVEIK
2.3
